assay: Plasma pharmacokinetics and liver distribution study in female BALB/c mice; assay type: in vivo, mouse; details: female, BALB/c, mouse; po, Dose: 50 mg/kg, plasma; read-out: PK (po, plasma/liver) Cmax, plasma
observed.property: Cmax (µM)
Write the number in µM without appending the unit.

Ask: If you can, please state the reported Cmax value of CC(C)NC(=O)N1Cc2cc(C(=O)NCC(F)(F)F)nc(-c3cccc(-c4cc5ccccc5o4)c3)c2[C@H]1CCO [drawing 328] .
Result: 10.9

====

In this section we review reported Tmax values for a set of molecules.
Assay: Plasma pharmacokinetics and liver distribution study in female BALB/c mice
Format: in vivo, mouse
Conditions: female, BALB/c, mouse; po, Dose: 100 mg/kg, plasma; read-out: PK (po, plasma/liver) Tmax, plasma
Method: A plasma pharmacokinetics and liver distribution study of selected compounds, including Pyrrolopyridine-008 (2015-foleyc-216), Pyrrolopyridine-D20-ent (2015-foleyc-217), and Pyrrolopyridine-M03 (2015-foleyc-218), in female BALB/c mice was conducted following a single intraperitoneal and oral administration. […] All samples were processed for analysis by protein precipitation using acetonitrile and analyzed with fit-for-purpose LC-MS/MS method (LLOQ: 2.01 ng/mL for plasma and 50.30 ng/g for liver). […]

1. CC(C)(C)[S@@+]([O-])N1Cc2cc(C(=O)NCc3ccc4c(c3)OCO4)nc(-c3cccc(-c4cccnc4)c3)c2[C@H]1CCO [drawing 329] | 60 min

Ask: GET /values?readout=Tmax&item= CC(C)(C)[S@@+]([O-])N1Cc2cc(C(=O)NCc3ccccc3F)nc(-c3cccc(-c4cccnc4)c3)c2[C@H]1CCO [drawing 330]
Result: 30 min

====

experiment: Plasma pharmacokinetics and liver distribution study in female BALB/c mice; assay type: in vivo, mouse; conditions: female, BALB/c, mouse; ip, Dose: 50 mg/kg, liver; read-out: PK (ip, plasma/liver) AUCinf, liver
observed.property: AUC(0-inf) (µM·h)
Answer format: numeric, µM·h implied, no suffix.

Ask: Given CC(C)NC(=O)N1Cc2cc(C(=O)NCC(F)(F)F)nc(-c3cccc(-c4cc5ccccc5o4)c3)c2[C@H]1CCO [drawing 328] , state its recorded AUC(0-inf).
Result: 186

====

Recorded Tmax, one value per entry.
test: Plasma pharmacokinetics and liver distribution study in female BALB/c mice; assay type: in vivo, mouse; details: female, BALB/c, mouse; ip, Dose: 100 mg/kg, liver; read-out: PK (ip, plasma/liver) Tmax, liver
Numbers only; they are read as min.

1. CC(C)(C)[S@@+]([O-])N1Cc2cc(C(=O)NCc3ccccc3F)nc(-c3cccc(-c4cccnc4)c3)c2[C@H]1CCO [drawing 330] | 15

Ask: Form field: reported Tmax of CC(C)(C)[S@@+]([O-])N1Cc2cc(C(=O)NCc3ccc4c(c3)OCO4)nc(-c3cccc(-c4cccnc4)c3)c2[C@H]1CCO [drawing 329]
Result: 30

====

Here, each record is paired with measured Papp at 5 h data.
assay: Parallel artificial membrane permeability assay (PAMPA), commercial kit; assay type: in vitro ADME; details: PBS, room temperature, read-out: Parallel artificial membrane permeability assay (PAMPA) Permeability (log Pe [cm/s]) (converted)
Respond numerically; units are ×10⁻⁶ cm/s and should not be typed.

1. CN(C)CC#Cc1cccc(-c2nc(C(=O)NCc3ccc4c(c3)OCO4)cc3c2[C@@H](CCO)N([S@+]([O-])C(C)(C)C)C3)c1 [compound 21] | 0.055

Ask: Fill in the blank: the reported Papp at 5 h of CN(C)CC#Cc1cccc(-c2nc(C(=O)N[C@@H]3CCN(Cc4ccccc4)C3)cc3c2[C@@H](CCO)N([S@+]([O-])C(C)(C)C)C3)c1 [compound 37] is ____.
Result: 5.75
